- Assay procedure: chemical genetic growth profiling, strain panel (AID 1159580);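 further: tested at 20 µM; growth read once vehicle control cultures reached saturation at 30 °C; lower values mean less growth of the strain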
- Reported conditions: S. cerevisiae deletion strains, growth OD, locus YAL013W, strain DEP1
In all, about 5,500 compounds went through this assay and about 2,000 (36%) were called active. Roughly 18% stayed inconclusive and do not appear here. No stated cut-off is given here; in the data, active means normalized growth mostly below about 0.91 (no sharp cut-off); inconclusive means no clear call, values can overlap the other calls; inactive means mostly above about 0.92. Some of the results follow.
Would you mind answering with one of these outcomes? active, inactive

Examples with answers:
Compound	Label
C#C[C@]1(OC(C)=O)CCC2C3CCC4=CC(=O)CC[C@@H]4C3CC[C@@]21C (stereo partly specified)	inactive
Cc1c(Br)sc2ccc(Cl)cc12	inactive

Req: What did this assay record as the result for COc1cc(OC)nc(N)n1 ?
Resp: inactive

Req: Lab log entry: O=C(Nc1cc(C(=O)Nc2ccc(S(=O)(=O)O)cc2S(=O)(=O)O)cc(C(=O)Nc2ccc(S(=O)(=O)O)cc2S(=O)(=O)O)c1)Nc1cc(C(=O)Nc2ccc(S(=O)(=O)O)cc2S(=O)(=O)O)cc(C(=O)Nc2ccc(S(=O)(=O)O)cc2S(=O)(=O)O)c1 — outcome as called in the assay?
Resp: inactive

Req: Could you check what this test reported for C/C(O)=C(\C#N)C(=O)Nc1cc(Br)ccc1Br ?
Resp: inactive

Req: Can you look up the reported call for CC(C)CC(N(C)C)C1(c2ccc(Cl)cc2)CCC1 (stereo unspecified) for me?
Resp: inactive

Req: Fill in: this test's call for COC(=O)C1Cc2c([nH]c3ccccc23)C2(CCN(C)CC2)N1 (stereo unspecified) is ___
Resp: inactive

Req: GET /call?item= O=C1C(O)=C(O)C(=O)C(O)=C1O returns the recorded outcome of this test.
Resp: inactive

All values here come from PubChem BioAssay AID1159580.
